biological target: Phosphatidylinositol 4,5-bisphosphate 3-kinase catalytic subunit beta isoform (Homo sapiens, UniProt P42338); assay: Inhibition of PI3K beta by continuous TR-FRET assay
Sequence (P42338 whole entry, canonical isoform): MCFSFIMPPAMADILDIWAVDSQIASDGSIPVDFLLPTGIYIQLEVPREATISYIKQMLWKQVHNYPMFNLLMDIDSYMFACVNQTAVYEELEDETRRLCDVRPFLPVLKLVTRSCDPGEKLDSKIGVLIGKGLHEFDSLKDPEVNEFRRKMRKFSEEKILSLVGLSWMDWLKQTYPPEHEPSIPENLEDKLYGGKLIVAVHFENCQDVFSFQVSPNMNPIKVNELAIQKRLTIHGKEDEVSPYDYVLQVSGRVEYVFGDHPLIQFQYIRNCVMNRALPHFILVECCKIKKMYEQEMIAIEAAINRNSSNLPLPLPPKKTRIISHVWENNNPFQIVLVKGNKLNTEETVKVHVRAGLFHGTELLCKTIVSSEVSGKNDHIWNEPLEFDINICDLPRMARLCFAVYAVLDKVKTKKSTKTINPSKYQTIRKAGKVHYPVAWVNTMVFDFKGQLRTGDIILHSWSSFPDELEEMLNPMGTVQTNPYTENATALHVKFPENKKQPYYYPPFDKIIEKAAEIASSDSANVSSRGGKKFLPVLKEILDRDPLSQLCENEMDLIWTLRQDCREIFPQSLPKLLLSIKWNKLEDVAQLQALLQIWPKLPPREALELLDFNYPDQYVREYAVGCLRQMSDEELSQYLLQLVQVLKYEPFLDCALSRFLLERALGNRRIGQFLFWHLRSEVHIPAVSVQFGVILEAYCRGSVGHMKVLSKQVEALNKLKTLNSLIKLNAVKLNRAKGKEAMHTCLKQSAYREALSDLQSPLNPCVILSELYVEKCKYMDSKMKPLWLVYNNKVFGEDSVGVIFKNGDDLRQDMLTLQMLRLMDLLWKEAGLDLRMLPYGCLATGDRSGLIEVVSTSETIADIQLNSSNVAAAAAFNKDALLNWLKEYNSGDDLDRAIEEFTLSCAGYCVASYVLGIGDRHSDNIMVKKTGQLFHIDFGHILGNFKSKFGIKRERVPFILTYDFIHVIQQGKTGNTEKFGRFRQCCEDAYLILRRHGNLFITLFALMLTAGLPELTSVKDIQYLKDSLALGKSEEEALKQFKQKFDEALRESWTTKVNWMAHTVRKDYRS
MEASURED_ENDPOINT: IC50 (nM)

Below: 7 compounds and their reported IC50.
> print(dat)
                         structure.notation  result
1  Cc1c(Cn2c(C3CC3)nc(=O)c3sc(N4CCOCC4)nc32)cccc1C(F)(F)F     0.5
2  Cc1c(Cl)cccc1Cn1c(=S)[nH]c(=O)c2sc(N3CCOCC3)nc21       5
3  COc1nc(=O)c2sc(N3CCOCC3)nc2n1Cc1cccc(Cl)c1C     0.3
4  Cc1c(Cl)cccc1Cn1cnc(=O)c2sc(N3CCOCC3)nc21       3
5  CSc1nc(=O)c2sc(N3CCOCC3)nc2n1Cc1cccc(Cl)c1C     0.3
6     Cc1ccccc1Cn1cnc(=O)c2sc(N3CCOCC3)nc21      25
7  Cc1c(Cn2c(C)nc(=O)c3sc(N4CCOCC4)nc32)cccc1C(F)(F)F     0.6

A: Cc1c(Cl)cccc1Cn1c(SCC(=O)O)nc(=O)c2sc(N3CCOCC3)nc21
B: CCc1nc(=O)c2sc(N3CCOCC3)nc2n1Cc1cccc(C(F)(F)F)c1C
C: Cc1c(Cn2cnc(=O)c3sc(N4CCOCC4)nc32)cccc1C(F)(F)F
[ask] Please list these compounds in decreasing order of IC50. List labels; respect the requested ordering.
[reply] C, B, A
(C: 3 nM, B: 0.5 nM, A: 0.05 nM)
